target: ROCK2 (Homo sapiens, UniProt O75116)
Sequence (O75116 whole entry): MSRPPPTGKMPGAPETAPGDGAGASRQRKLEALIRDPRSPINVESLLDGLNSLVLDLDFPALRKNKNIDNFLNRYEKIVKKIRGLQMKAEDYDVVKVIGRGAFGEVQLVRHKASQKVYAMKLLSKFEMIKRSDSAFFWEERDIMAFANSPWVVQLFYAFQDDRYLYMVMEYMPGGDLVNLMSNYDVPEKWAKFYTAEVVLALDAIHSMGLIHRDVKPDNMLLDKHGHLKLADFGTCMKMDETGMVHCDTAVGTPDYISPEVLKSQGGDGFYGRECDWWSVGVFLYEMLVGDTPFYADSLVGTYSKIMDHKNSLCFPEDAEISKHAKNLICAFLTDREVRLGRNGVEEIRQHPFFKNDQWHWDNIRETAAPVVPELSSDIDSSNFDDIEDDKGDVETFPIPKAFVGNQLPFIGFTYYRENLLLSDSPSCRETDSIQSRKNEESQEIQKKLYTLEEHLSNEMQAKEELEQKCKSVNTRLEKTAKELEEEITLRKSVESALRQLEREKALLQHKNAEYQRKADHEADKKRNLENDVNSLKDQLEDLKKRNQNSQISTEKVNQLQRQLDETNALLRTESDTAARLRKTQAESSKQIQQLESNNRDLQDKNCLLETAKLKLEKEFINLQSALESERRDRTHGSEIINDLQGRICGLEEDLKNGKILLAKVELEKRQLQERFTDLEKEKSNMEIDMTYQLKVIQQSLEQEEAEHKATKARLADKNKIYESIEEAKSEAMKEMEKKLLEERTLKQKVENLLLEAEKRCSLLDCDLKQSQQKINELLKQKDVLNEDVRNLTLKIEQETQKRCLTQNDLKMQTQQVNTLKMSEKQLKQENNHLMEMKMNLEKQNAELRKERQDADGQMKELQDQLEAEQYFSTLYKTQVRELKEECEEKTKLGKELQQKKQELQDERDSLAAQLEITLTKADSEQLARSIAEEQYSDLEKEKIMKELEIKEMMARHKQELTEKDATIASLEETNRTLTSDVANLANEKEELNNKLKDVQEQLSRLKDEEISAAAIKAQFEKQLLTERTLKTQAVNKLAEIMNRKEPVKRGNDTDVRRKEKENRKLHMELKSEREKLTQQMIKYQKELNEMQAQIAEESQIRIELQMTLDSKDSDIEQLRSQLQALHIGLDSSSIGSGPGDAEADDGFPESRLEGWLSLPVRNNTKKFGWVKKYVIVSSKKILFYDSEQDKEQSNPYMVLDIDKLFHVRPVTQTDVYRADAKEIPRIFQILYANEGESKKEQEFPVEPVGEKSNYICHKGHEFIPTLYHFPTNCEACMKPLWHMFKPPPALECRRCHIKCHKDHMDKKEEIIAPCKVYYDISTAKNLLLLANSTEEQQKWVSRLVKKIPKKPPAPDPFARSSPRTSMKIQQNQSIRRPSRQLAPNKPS
Please respond with reported Ki for every item in the list.

For each entry beneath this line, provide reported Ki.
1. CNC(=O)c1cccc(CNc2ncc(-c3ccnc(N)n3)c3c2CCO3)c1F
2. CO[C@H]1C[C@@H](NC(=O)c2cccc(CNc3ncc(-c4ccnc(N)n4)c4c3CCO4)c2)C1
3. CO[C@H]1C[C@H](CNC(=O)c2cccc(CNc3ncc(-c4ccnc(N)n4)c4c3CCO4)c2)C1
4. Nc1nccc(-c2cnc(NCc3cccc(C(=O)N[C@H]4C[C@H](F)C4)c3)c3c2OCC3)n1
5. Nc1nccc(-c2cnc(NCc3cccc(C(=O)NC[C@@H]4CCCO4)c3)c3c2OCC3)n1
6. Nc1nccc(-c2cnc(NCc3cccc(C(=O)N[C@@H]4C[C@@H]4F)c3)c3c2OCC3)n1
7. CN1CCOC(CNC(=O)c2cccc(CNc3ncc(-c4ccnc(N)n4)c4c3CCO4)c2)C1 (single isomer, unassigned)
8. Nc1nccc(-c2cnc(NCc3cccc(C(=O)NC4CC4F)c3)c3c2OCC3)n1 (single isomer, unassigned) [Example 45]

["3 to 30 nM", "≤ 3 nM", "≤ 3 nM", "≤ 3 nM", "≤ 3 nM", "≤ 3 nM", "≤ 3 nM", "≤ 3 nM"]

Note down Ki recorded for `Nc1nccc(-c2cnc(NCc3cccc(C(=O)N[C@H]4C[C@@H](OC(F)F)C4)c3)c3c2OCC3)n1`
≤ 3 nM
